ASSAY_TEXT: Inhibition of soybean 15-LOX assessed as peroxide level by DMAB-MBTH method
Parameters: species or system Glycine max
ASSAY_METRIC: IC50

Incoming: Fill in: IC50 of CSc1ccc(-c2[nH]c(=S)[nH]c2-c2ccc(Cl)cc2)cc1 is ___
Outgoing: 19.7 µM

Incoming: Fill in: IC50 of COc1ccc(-c2nc(SC)[nH]c2-c2ccc(Cl)cc2)cc1 is ___
Outgoing: > 250 µM

Incoming: Fill in: IC50 of CSc1ccc(-c2[nH]c(=S)[nH]c2-c2ccc(F)cc2)cc1 is ___
Outgoing: 136 µM

Incoming: Fill in: IC50 of COc1ccc(-c2nc(S)[nH]c2-c2ccc(OC)cc2)cc1 is ___
Outgoing: 14.7 µM

---

ASSAY_TEXT: Inhibition of soybean 15-LOX assessed as peroxide level by DMAB-MBTH method
Design: species or system Glycine max
ASSAY_METRIC: IC50 (µM)
Please respond with the number in µM and leave the unit unwritten.

Incoming: Fill in: IC50 of S=c1[nH]c(-c2ccccc2)c(-c2ccc(Cl)cc2)[nH]1 is ___
Outgoing: 24.9

Incoming: Fill in: IC50 of COc1ccc(-c2[nH]c(=S)[nH]c2-c2ccc(F)cc2)cc1 is ___
Outgoing: 11

Incoming: Fill in: IC50 of COc1ccc(-c2[nH]c(=S)[nH]c2-c2ccccc2)cc1 is ___
Outgoing: 13.7

Incoming: Fill in: IC50 of S=c1[nH]c(-c2ccccc2)c(-c2ccccc2)[nH]1 is ___
Outgoing: 15.2

Incoming: Fill in: IC50 of CSc1ccc(-c2[nH]c(=S)[nH]c2-c2ccccc2)cc1 is ___
Outgoing: 5.7

Incoming: Fill in: IC50 of Fc1ccc(-c2[nH]c(=S)[nH]c2-c2ccc(F)cc2)cc1 is ___
Outgoing: 23.4

Incoming: Fill in: IC50 of COc1ccc(-c2[nH]c(=S)[nH]c2-c2ccc(N(C)C)cc2)cc1 is ___
Outgoing: 9.4

Incoming: Fill in: IC50 of Cc1nc(N2CCN(C)CC2)nc2c1Nc1ccccc1S2 is ___
Outgoing: 34.2

Incoming: Fill in: IC50 of S=c1[nH]c(-c2ccc(Cl)cc2)c(-c2ccc(Cl)cc2)[nH]1 is ___
Outgoing: 62

Incoming: Fill in: IC50 of COc1ccc(-c2[nH]c(=S)[nH]c2-c2ccc(Cl)cc2)cc1 is ___
Outgoing: 4.7

Incoming: Fill in: IC50 of CN(C)c1ccc(-c2[nH]c(=S)[nH]c2-c2ccc(Cl)cc2)cc1 is ___
Outgoing: 22.3
